test system: SARS-CoV-2 WT; assay: Anti-viral activity evaluation in SARS-CoV-2 infected Vero-E6 cell model (qRT-PCR viral copy numbers); format: cell-based; conditions: Severe acute respiratory syndrome coronavirus 2, Vero C1008, 48 h, read-out: SARS-Cov-2 WT EC50 (µM)
Please provide measured EC50 for the entries that follow.

Task: I have this molecule here, Cc1ccc(N2CCN(C)CC2)cc1C(=O)NC1(c2ccc3c4c(cccc24)C(=O)N3C)CC1 [Compound P1] , and I need its recorded EC50.
Output: 0.1 to 1 µM

Task: I have this molecule here, Cc1ccc(N2CC3CC(C2)N3)cc1C(=O)NC1(c2ccc3c4c(cccc24)C(=O)N3C)CC1 , and I need its recorded EC50.
Output: < 0.04 µM

Task: I have this molecule here, Cc1ccc(N2CC(N3CCC(C)(O)CC3)C2)cc1C(=O)NC1(c2ccc3c4c(cccc24)C(=O)N3C)CC1 , and I need its recorded EC50.
Output: < 0.04 µM

Task: I have this molecule here, Cc1ccc(N2CC3CC(C2)N3C)cc1C(=O)NC1(c2ccc3c4c(cccc24)C(=O)N3C)CC1 , and I need its recorded EC50.
Output: 0.1 to 1 µM

Task: I have this molecule here, CC(C)N1C(=O)c2cccc3c(C4(NC(=O)c5cccc(N6CC7CC(C6)N7)c5)CC4)ccc1c23 , and I need its recorded EC50.
Output: 0.1 to 1 µM

Task: I have this molecule here, Cc1ccc(C2=CCN(C)CC2)cc1C(=O)NC1(c2ccc3c4c(cccc24)C(=O)N3C)CC1 , and I need its recorded EC50.
Output: 0.1 to 1 µM

###

target: SARS-CoV-2 PL^Pro (Severe acute respiratory syndrome coronavirus 2); construct: SARS-CoV-2 PL^Pro catalytic domain (746-1060); made in house; test: biochemical; details: SARS-CoV-2 PLPro catalytic domain (746-1060), 10 minutes pre-incubation; read-out: PLpro IC50
pIC50: −log10 of the molar value.
measure.name: pIC50

Task: I have this molecule here, Cc1ccc(N2CCN3CCC[C@@H]3C2)cc1C(=O)NC1(c2ccc3c4c(cccc24)C(=O)N3C)CC1 , and I need its recorded pIC50.
Output: > 7.40

Task: I have this molecule here, Cc1ccc(N2CC(N3CCCCC3)C2)cc1C(=O)NC1(c2ccc3c4c(cccc24)C(=O)N3C)CC1 , and I need its recorded pIC50.
Output: > 7.40

Task: I have this molecule here, Cc1ccc(N2CC3CCCN(C)C3C2)cc1C(=O)NC1(c2ccc3c4c(cccc24)C(=O)N3C)CC1 (stereo not drawn) , and I need its recorded pIC50.
Output: > 7.40

Task: I have this molecule here, Cc1ccc(N2CCNCC2C)cc1C(=O)NC1(c2ccc3c4c(cccc24)C(=O)N3C)CC1 (stereo not drawn) , and I need its recorded pIC50.
Output: 6.00 to 7.00

Task: I have this molecule here, Cc1ccc(N2CCC(CN3CCOCC3)CC2)cc1C(=O)NC1(c2ccc3c4c(cccc24)C(=O)N3C)CC1 , and I need its recorded pIC50.
Output: 6.00 to 7.00

Task: I have this molecule here, Cc1ccc(N2CC(N3C=CC(F)(F)C3)C2)cc1C(=O)NC1(c2ccc3c4c(cccc24)C(=O)N3C)CC1 , and I need its recorded pIC50.
Output: 6.00 to 7.00

Task: I have this molecule here, Cc1ccc(N2C[C@H]3C[C@@H]2CN3C)cc1C(=O)NC1(c2ccc3c4c(cccc24)C(=O)N3C)CC1 , and I need its recorded pIC50.
Output: > 7.40

Task: I have this molecule here, Cc1ccc(N2C[C@H]3CN(C)C[C@H]32)cc1C(=O)NC1(c2ccc3c4c(cccc24)C(=O)N3C)CC1 , and I need its recorded pIC50.
Output: 6.00 to 7.00

Task: I have this molecule here, Cc1ccc(N2CC(N3CCC(F)C3)C2)cc1C(=O)NC1(c2ccc3c4c(cccc24)C(=O)N3C)CC1 (stereo not drawn) , and I need its recorded pIC50.
Output: > 7.40

Task: I have this molecule here, Cc1ccc(N2CCN(CCO)CC2)cc1C(=O)NC1(c2ccc3c4c(cccc24)C(=O)N3C)CC1 , and I need its recorded pIC50.
Output: 7.00 to 7.40

Task: I have this molecule here, Cc1ccc(C2CCNCC2)cc1C(=O)NC1(c2ccc3c4c(cccc24)C(=O)N3C)CC1 , and I need its recorded pIC50.
Output: 7.00 to 7.40

Task: I have this molecule here, Cc1ccc(C2CCN(C)CC2)cc1C(=O)NC1(c2ccc3c4c(cccc24)C(=O)N3C)CC1 , and I need its recorded pIC50.
Output: 7.00 to 7.40

Task: I have this molecule here, Cc1ccc(N2CC(N3CCCCC3C)C2)cc1C(=O)NC1(c2ccc3c4c(cccc24)C(=O)N3C)CC1 (stereo not drawn) , and I need its recorded pIC50.
Output: > 7.40

Task: I have this molecule here, Cc1ccc(N2CCN(CC(C)O)CC2)cc1C(=O)NC1(c2ccc3c4c(cccc24)C(=O)N3C)CC1 (stereo not drawn) , and I need its recorded pIC50.
Output: > 7.40

Task: I have this molecule here, Cc1ccc(N2CCN(CC(C)(C)O)CC2)cc1C(=O)NC1(c2ccc3c4c(cccc24)C(=O)N3C)CC1 , and I need its recorded pIC50.
Output: > 7.40

###

assay: Routine pharmacokinetic (PK) test in rats, oral gavage; assay type: in vivo; conditions: rat, 5 mg/kg, plasma
measure.name: AUC(0-t) (ng·h/mL)
Respond with the bare value in ng·h/mL.

Task: I have this compound here, Cc1ccc(N2CCN(C)CC2)cc1C(=O)NC1(c2ccc3c4c(cccc24)C(=O)N3C)CC1 [Compound P1] , and I need its recorded AUC(0-t).
Output: 3390

###

experiment: Routine pharmacokinetic (PK) test in rats, oral gavage; format: in vivo; conditions: rat, 5 mg/kg, plasma
measure.name: Cmax (ng/mL)
Respond with the bare value in ng/mL.

Task: I have this compound here, Cc1ccc(N2CCN(C)CC2)cc1C(=O)NC1(c2ccc3c4c(cccc24)C(=O)N3C)CC1 [Compound P1] , and I need its recorded Cmax.
Output: 393

###

test: Routine pharmacokinetic (PK) test in rats, oral gavage; format: in vivo; details: rat, 5 mg/kg, plasma
measure.name: half-life (h)
Respond with the bare value in h.

Task: I have this compound here, Cc1ccc(N2CCN(C)CC2)cc1C(=O)NC1(c2ccc3c4c(cccc24)C(=O)N3C)CC1 [Compound P1] , and I need its recorded half-life.
Output: 3

###

Please provide measured pIC50 for the entries that follow.
target: SARS-CoV-2 PL^Pro (Severe acute respiratory syndrome coronavirus 2, UniProt P0DTD1); construct: SARS-CoV-2 PL^Pro catalytic domain (746-1060); made in house; experiment: biochemical; conditions: read-out: PLpro IC50
pIC50: −log10 of the molar value.

Task: I have this compound here, Cc1ccc(N2CC(N3CCOC(C)(C)C3)C2)cc1C(=O)NC1(c2ccc3c4c(cccc24)C(=O)N3C)CC1 , and I need its recorded pIC50.
Output: 6.00 to 7.00

Task: I have this compound here, Cc1ccc(N2CC3CCN(C)C3C2)cc1C(=O)NC1(c2ccc3c4c(cccc24)C(=O)N3C)CC1 (stereo not drawn) , and I need its recorded pIC50.
Output: > 7.40

Task: I have this compound here, Cc1ccc(N2CC(N3CCC3)C2)cc1C(=O)NC1(c2ccc3c4c(cccc24)C(=O)N3C)CC1 , and I need its recorded pIC50.
Output: > 7.40

Task: I have this compound here, Cc1ccc(N2CCN(CCCS(C)(=O)=O)CC2)cc1C(=O)NC1(c2ccc3c4c(cccc24)C(=O)N3C)CC1 , and I need its recorded pIC50.
Output: 7.00 to 7.40

Task: I have this compound here, CC(C)N1C(=O)c2cccc3c(C4(NC(=O)c5cccc(N6CC7CC(C6)N7)c5)CC4)ccc1c23 , and I need its recorded pIC50.
Output: > 7.40

Task: I have this compound here, CCN1C(=O)c2cccc3c(C4(NC(=O)c5cc(N6CC7CC(C6)N7)ccc5C)CC4)ccc1c23 , and I need its recorded pIC50.
Output: > 7.40

Task: I have this compound here, Cc1ccc(N2CC[C@H](N(C)C(C)C)C2)cc1C(=O)NC1(c2ccc3c4c(cccc24)C(=O)N3C)CC1 , and I need its recorded pIC50.
Output: > 7.40

Task: I have this compound here, Cc1ccc(N2CCC(N3CCCC3)C2)cc1C(=O)NC1(c2ccc3c4c(cccc24)C(=O)N3C)CC1 (stereo not drawn) , and I need its recorded pIC50.
Output: 7.00 to 7.40

Task: I have this compound here, Cc1ccc(N2CC(N3CC(F)C3)C2)cc1C(=O)NC1(c2ccc3c4c(cccc24)C(=O)N3C)CC1 , and I need its recorded pIC50.
Output: 7.00 to 7.40

Task: I have this compound here, Cc1ccc(N2CC(N3CCOCC3)C2)cc1C(=O)NC1(c2ccc3c4c(cccc24)C(=O)N3C)CC1 , and I need its recorded pIC50.
Output: 6.00 to 7.00

Task: I have this compound here, Cc1ccc(N2CC(N3CCS(=O)(=O)CC3)C2)cc1C(=O)NC1(c2ccc3c4c(cccc24)C(=O)N3C)CC1 , and I need its recorded pIC50.
Output: 6.00 to 7.00

Task: I have this compound here, Cc1ccc(N2CC3(CCN(C)C3)C2)cc1C(=O)NC1(c2ccc3c4c(cccc24)C(=O)N3C)CC1 , and I need its recorded pIC50.
Output: 6.00 to 7.00
